Values from ChEMBL document CHEMBL3885861

For each record, write down the corresponding K.
- Species on record: Rattus norvegicus
- testName: Open TG-GATES - Regimen: Single
- Type: toxicity, organism-based, Sprague-Dawley
- Design: regimen Single, gender Male, age 6 weeks
- condition: in vivo, po, 100 mg/kg, 24 h, tissue Plasma, route gavage, dose level Low
Give bare numbers, in meq/L.

CN/C(=N/CCSCc1nc[nH]c1C)NC#N [CIMETIDINE]    4.2
Cc1nnc2n1-c1ccc(Cl)cc1C(c1ccccc1Cl)=NC2 [TRIAZOLAM]    4.1
COC(=O)C1=C(C)NC(C)=C(C(=O)OC)C1c1ccccc1[N+](=O)[O-] [NIFEDIPINE]    4.4
CNC(=C[N+](=O)[O-])NCCSCc1ccc(CN(C)C)o1 [RANITIDINE]    4

// below: K requested for another compound
Sure, the documented K for O=C(OC[C@H]1O[C@@H](OC(=O)c2cc(O)c(O)c(OC(=O)c3cc(O)c(O)c(O)c3)c2)[C@H](OC(=O)c2cc(O)c(O)c(OC(=O)c3cc(O)c(O)c(O)c3)c2)[C@@H](OC(=O)c2cc(O)c(O)c(OC(=O)c3cc(O)c(O)c(O)c3)c2)[C@@H]1OC(=O)c1cc(O)c(O)c(OC(=O)c2cc(O)c(O)c(O)c2)c1)c1cc(O)c(O)c(OC(=O)c2cc(O)c(O)c(O)c2)c1 [TANNIC ACID] is 4.5
